# tgt: TDP-43 (Homo sapiens, UniProt Q13148 1-414)
# Sequence (Q13148 whole entry): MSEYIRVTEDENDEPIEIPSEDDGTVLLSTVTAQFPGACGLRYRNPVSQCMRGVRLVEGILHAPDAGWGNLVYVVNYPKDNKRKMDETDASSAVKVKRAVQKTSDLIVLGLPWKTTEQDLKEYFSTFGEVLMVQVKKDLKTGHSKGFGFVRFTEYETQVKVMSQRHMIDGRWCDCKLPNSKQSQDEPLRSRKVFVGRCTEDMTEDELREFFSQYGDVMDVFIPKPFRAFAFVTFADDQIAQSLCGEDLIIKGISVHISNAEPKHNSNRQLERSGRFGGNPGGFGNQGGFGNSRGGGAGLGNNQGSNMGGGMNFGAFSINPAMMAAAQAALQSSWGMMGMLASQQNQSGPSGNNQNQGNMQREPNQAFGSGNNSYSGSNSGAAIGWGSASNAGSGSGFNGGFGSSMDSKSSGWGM
# methodSummary: RNA Bind-n-Seq with designed 260-mer pool; 25 mM Tris-HCl, 150 mM KCl, 3 mM MgCl2, BSA (printed 500 mg/mL), 20 units/mL SUPERase IN; pH not stated; 500 nM RNA pool, 1 h, 4 C; TDP-43 5, 50, 500 nM; high values mean tight binding
# assaySetup: protein: recombinant; tags: SBP (GST cleaved off with PreScission; pGEX-GST-SBP)
In all, about 9,900 sequences were measured (“r (bound/input frequency ratio)”: median about 0.7, highest 2% from about 6.5 on). The sample as a whole holds a higher share of the highest values than the screen did.
readoutKind: binding signal

• ENSMUSG00000061578.1430|Ksr2 (ssRNA) RNA: GGGAGUUCUACAGUCCGACGAUCGCUUCGAUAUCCGCAUGCUAGUCUUGCUCUCUGUCUCUCUCACUCAUUGCCAACAUGUUGCUGGGAAAGAAUAUUUGAUUUAGAUGCCAAUCAGGAAGGCAAGUAGGAUGGAUGGAUGAGUGAGUGGAUAGGUAGGUAUAUAAAUGGAUGGAUGGGUGAUGGAUGGGUAAAUGAAUGGAUAGGUAUGUGAAUGAAUGGAUGAUGGAUGAAUGGAUGGGUAGGUGGGUAGAUAGGUAUAUGAAUGAAUGGAUGAAUGGAUGGGUGAAUGGAUGGAUAGGUACUCUUGCGGUCGCACUAGUGUGGAAUUCUCGGGUGUCAAGG = 6.58 R (bound/input frequency ratio)
• ENSMUSG00000058297.10|Spock2 (ssRNA) RNA: GGGAGUUCUACAGUCCGACGAUCGCUUCGAUAUCCGCAUGCUAGGAGGGUGAGGCGGGUGAGGCAGAUGAUGGAGGCUACAUCUGGUAGAUAGCCCUCGACGGCCUCGGCAGGCCAGGGUGCCGACGGCCAGAAAGACAGGCCAGAAGAGACCUGGACAACAGCAGGCAACUUAGCAAAUGGAUCCGGAAGUCAGUGCGGAGGACCCUGGCUCCAGUGGGGGAGGACUGGGGAGUGUGGCUUGUGUGUAUGUGUGAUAUGAGAUGUGUGUGUAUGAUGUGAGAUGUGAGUGUGUGAUGUGAGACUCUUGCGGUCGCACUAGUGUGGAAUUCUCGGGUGUCAAGG = 6.91 R (bound/input frequency ratio)
• ENSMUSG00000058297.7|Spock2 (ssRNA) RNA: GGGAGUUCUACAGUCCGACGAUCGCUUCGAUAUCCGCAUGCUAGGAGGAGGCCGAGGAGGAGGAGGGUGAGGCGGGUGAGGCAGAUGAUGGAGGCUACAUCUGGUAGAUAGCCCUCGACGGCCUCGGCAGGCCAGGGUGCCGACGGCCAGAAAGACAGGCCAGAAGAGACCUGGACAACAGCAGGCAACUUAGCAAAUGGAUCCGGAAGUCAGUGCGGAGGACCCUGGCUCCAGUGGGGGAGGACUGGGGAGUGUGGCUUGUGUGUAUGUGUGAUAUGAGAUGUGUGUGUAUGAUGUGAGAUGCUCUUGCGGUCGCACUAGUGUGGAAUUCUCGGGUGUCAAGG = 5.88 R (bound/input frequency ratio)
• ENSMUSG00000061578.1433|Ksr2 (ssRNA) RNA: GGGAGUUCUACAGUCCGACGAUCGCUUCGAUAUCCGCAUGCUACUCACUCAUUGCCAACAUGUUGCUGGGAAAGAAUAUUUGAUUUAGAUGCCAAUCAGGAAGGCAAGUAGGAUGGAUGGAUGAGUGAGUGGAUAGGUAGGUAUAUAAAUGGAUGGAUGGGUGAUGGAUGGGUAAAUGAAUGGAUAGGUAUGUGAAUGAAUGGAUGAUGGAUGAAUGGAUGGGUAGGUGGGUAGAUAGGUAUAUGAAUGAAUGGAUGAAUGGAUGGGUGAAUGGAUGGAUAGGUAUGUGAAUAAAUGGAUGGACUCUUGCGGUCGCACUAGUGUGGAAUUCUCGGGUGUCAAGG = 6.35 R (bound/input frequency ratio)
• ENSMUSG00000061578.1432|Ksr2 (ssRNA) RNA: GGGAGUUCUACAGUCCGACGAUCGCUUCGAUAUCCGCAUGCUAGUCUCUCUCACUCAUUGCCAACAUGUUGCUGGGAAAGAAUAUUUGAUUUAGAUGCCAAUCAGGAAGGCAAGUAGGAUGGAUGGAUGAGUGAGUGGAUAGGUAGGUAUAUAAAUGGAUGGAUGGGUGAUGGAUGGGUAAAUGAAUGGAUAGGUAUGUGAAUGAAUGGAUGAUGGAUGAAUGGAUGGGUAGGUGGGUAGAUAGGUAUAUGAAUGAAUGGAUGAAUGGAUGGGUGAAUGGAUGGAUAGGUAUGUGAAUAAAUGCUCUUGCGGUCGCACUAGUGUGGAAUUCUCGGGUGUCAAGG = 6.18 R (bound/input frequency ratio)
• ENSMUSG00000061578.450|Ksr2 (ssRNA) RNA: GGGAGUUCUACAGUCCGACGAUCGCUUCGAUAUCCGCAUGCUACUUCUAACCUUGUACUGGGACAUCAUCUAUGUCCCCAUCCCCAGAGCUGAAUUAGAGACACCAAGUAGCCUCUUGGGUUGUUUUGUGGGGUGUUCCCCUUGCUGGUCAAAGGAGUGGAAAGCCACCUUGCUGUAAAUGCUCUUGUUUUCUGUAGCAAUCUUGAACUCUUUUUUUUUUUUGUUCGUUUGUUUGUUUGUUUGUUUGUUUGUUUUUUCAAGACAGGGUUUUUCUGUAUAGCCCUGGCUGUCCUGGAACUCAUUCUCUUGCGGUCGCACUAGUGUGGAAUUCUCGGGUGUCAAGG = 2.73 R (bound/input frequency ratio)
• ENSMUSG00000061578.1433|Ksr2|145:149;240:244 (ssRNA) RNA: GGGAGUUCUACAGUCCGACGAUCGCUUCGAUAUCCGCAUGCUACUCACUCAUUGCCAACAUGUUGCUGGGAAAGAAUAUUUGAUUUAGAUGCCAAUCAGGAAGGCAAGUAGGAUGGAUGGAUGAGUGAGUGGAUAGGUAGGUAUAUAAAUGGAUGGAUGGGUGAUGGAUGGGUAAAUGAAUGGAUAGCAUACUGAAUGAAUGGAUGAUGGAUGAAUGGAUGGGUAGGUGGGUAGAUAGGUAUAUGAAUGAAUGGAUGAAUGGAUGGGUGAAUGGAUGGAUAGCAUACUGAAUAAAUGGAUGGACUCUUGCGGUCGCACUAGUGUGGAAUUCUCGGGUGUCAAGG = 7.14 R (bound/input frequency ratio)
